# Assay method text: Lipophilicity Log D at pH 7.4
# Conditions: buffer
The threshold is inclusive: logD of exactly 3 counts as TRUE; values below receive FALSE.

Threshold query (logD >= 3) on `Cc1ncc(-c2ccnc(Nc3ccc(N4CCOCC4)cc3)n2)n1C(C)C` FALSE

Threshold query (logD >= 3) on `CC(=O)NC1CN(c2ccc(Nc3ncc(F)c(-c4cnc(C)n4C(C)C)n3)cc2)C1` FALSE

Threshold query (logD >= 3) on `Cc1ncc(-c2ccnc(Nc3ccc(N4CCN(S(C)(=O)=O)CC4)cc3)n2)n1C(C)C` FALSE

Threshold query (logD >= 3) on `Cc1ncc(-c2ccnc(Nc3ccc(N4CCN(C(=O)CN(C)C)CC4)cc3)n2)n1C(C)C` TRUE

Threshold query (logD >= 3) on `Cc1ncc(-c2nc(Nc3ccc(N4CCN(C(=O)CO)CC4)cc3)ncc2F)n1C(C)C` FALSE

Threshold query (logD >= 3) on `Cc1ncc(-c2ccnc(Nc3ccc(N4CCN(S(=O)(=O)CCN(C)C)CC4)cc3)n2)n1C(C)C` FALSE

* * *

# Assay method text: Aqueous solubility at pH 7.4
# Conditions: buffer
For each of the compounds below, state its solubility.
Report the figure in µM without appending any unit label.

Name the recorded solubility for `Cc1ncc(-c2ccnc(Nc3ccc(N4CCN(S(C)(=O)=O)CC4)cc3)n2)n1C(C)C` . 9

Name the recorded solubility for `Cc1ncc(-c2nc(Nc3ccc(N4CCOCC4)cc3)ncc2F)n1C(C)C` . 120

Name the recorded solubility for `Cc1ncc(-c2nc(Nc3ccc(N4CCN(C(=O)CO)CC4)cc3)ncc2F)n1C(C)C` . 160

Name the recorded solubility for `Cc1ncc(-c2ccnc(Nc3ccc(N4CCOCC4)cc3)n2)n1C(C)C` . 56

Name the recorded solubility for `CC(=O)NC1CN(c2ccc(Nc3ncc(F)c(-c4cnc(C)n4C(C)C)n3)cc2)C1` . 120

* * *

# Assay method text: AUC in rat at 2 mg/kg, po
# Assay type: ADME, organism-based
# Set-up: dose 2 mg/kg, route oral
# Conditions: plasma
Quantity name: AUC (µM·h)
Report the figure in µM·h without appending any unit label.

Name the recorded AUC for `Cc1ncc(-c2nc(Nc3ccc(N4CCN(C(=O)CO)CC4)cc3)ncc2F)n1C(C)C` . 0.17

Name the recorded AUC for `Cc1ncc(-c2nc(Nc3ccc(N4CCOCC4)cc3)ncc2F)n1C(C)C` . 0.19

Name the recorded AUC for `Cc1ncc(-c2ccnc(Nc3ccc(N4CCN(C(=O)CO)CC4)cc3)n2)n1C(C)C` . 0.4

Name the recorded AUC for `Cc1ncc(-c2ccnc(Nc3ccc(N4CCN(S(C)(=O)=O)CC4)cc3)n2)n1C(C)C` . 0.08

Name the recorded AUC for `Cc1ncc(-c2ccnc(Nc3ccc(N4CCOCC4)cc3)n2)n1C(C)C` . 0.16

Name the recorded AUC for `Cc1ncc(-c2ccnc(Nc3ccc(N4CCN(C(=O)[C@H](C)O)CC4)cc3)n2)n1C(C)C` . 0.16

* * *

For each of the compounds below, state its IC50.
# Measured on: Cyclin-dependent kinase 2 (Homo sapiens)
# Assay method text: Inhibition of CDK2/Cyclin E
Report the figure in nM without appending any unit label.

Name the recorded IC50 for `Cc1ncc(-c2nc(Nc3ccc(N4CCN(C(=O)CO)CC4)cc3)ncc2F)n1C(C)C` . 6

Name the recorded IC50 for `Cc1ncc(-c2ccnc(Nc3ccc(F)cc3)n2)n1C(C)C` . 3

Name the recorded IC50 for `Cc1ncc(-c2ccnc(Nc3ccc(N(C)C)cc3)n2)n1C(C)C` . 24

Name the recorded IC50 for `Cc1ncc(-c2ccnc(Nc3ccc(N4CCN(C(=O)[C@H](C)O)CC4)cc3)n2)n1C(C)C` . 17

Name the recorded IC50 for `Cc1ncc(-c2nc(Nc3ccc(N4CCC[C@H]4C(=O)N(C)C)cc3)ncc2F)n1C(C)C` . 46

Cited source: ChEMBL document CHEMBL1155842
